The measurements presented in this section are drawn from the NTF2 design screens of Basanta et al. (2020).

Experiment: protease stability score; higher = more stable; yeast display proteolysis, trypsin and chymotrypsin;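 further: relative to predicted unfolded state with 0 unfolded-like and 1 meaning tenfold more protease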
value_kind: protease stability score
Answer field: number only, no words.

Incoming: # input sequence: DDHERDAERAIKELMHNFETGNEDFLNEMADPNMRVIINGKEHIGWENFRHHLRRVLHELRIKRIHIRQVRVQGEWVNVISEFIGEVDGREHRVETSYILLKVNGRWTLHSMYFE ; wanted: its protease stability score
Outgoing: 2.69

Incoming: # input sequence: SELHEEAEELTEKIIRILLTGNEHFFSELVDPDVRTNVDGKELHGREEALRKFEEMRRKLGYDRVRVELRKYTVFDGRVEVVTELNVNGRRLEYIWRMHKVDGRWSLHIWEIR ; wanted: its protease stability score
Outgoing: 2.65

Incoming: # input sequence: DELIEEARRFHEKLVDNLETGNEEEFEREIDPNTRVDFNGVEIHGWKHFSKMFKEIRFHQVRLHDIRAVGNKVDSDEDVDGNYNGVRVRHRIHVVARKVNGRWLMESVIFR ; wanted: its protease stability score
Outgoing: 1.24
